target: UniProt:P15101
Sequence (P15101 whole entry): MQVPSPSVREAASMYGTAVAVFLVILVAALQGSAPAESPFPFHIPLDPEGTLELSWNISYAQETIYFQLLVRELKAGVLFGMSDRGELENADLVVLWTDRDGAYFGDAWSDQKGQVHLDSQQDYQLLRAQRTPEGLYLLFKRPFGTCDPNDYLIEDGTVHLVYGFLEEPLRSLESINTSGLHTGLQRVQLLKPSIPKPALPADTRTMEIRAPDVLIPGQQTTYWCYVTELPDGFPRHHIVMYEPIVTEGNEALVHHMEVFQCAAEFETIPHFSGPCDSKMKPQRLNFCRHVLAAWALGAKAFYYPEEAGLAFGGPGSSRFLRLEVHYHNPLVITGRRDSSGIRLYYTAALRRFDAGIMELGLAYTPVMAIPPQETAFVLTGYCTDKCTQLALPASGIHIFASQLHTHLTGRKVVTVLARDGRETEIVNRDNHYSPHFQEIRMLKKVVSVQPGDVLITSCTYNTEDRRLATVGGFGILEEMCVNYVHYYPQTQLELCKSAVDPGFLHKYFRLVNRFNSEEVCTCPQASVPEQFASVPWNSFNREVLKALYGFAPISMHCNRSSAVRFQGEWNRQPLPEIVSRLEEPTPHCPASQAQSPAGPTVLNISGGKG
assay procedure: DBH inhibitory activity - in vitro (time-dependent inactivation; tyramine as substrate, oxygen uptake by polarographic electrode)
run parameters: inactivation of DBH, Kitz and Wilson method; pH 5, 20°-40° C., preferably 37° C.; tyramine substrate
measure name: pKi
When answering, recall that pKi equals minus log10 of the concentration in mol/L, and write that number alone.

Record C=C(CN)c1ccco1 [β-Methylene-2-Furanethanamine] . Reported pKi: 2.10

Numbers sourced from patent US4703058A.
